- targetOrSystem: T1, hIL2Rg-Fc (SinoBiological cat#10555) (human, UniProt P31785 23-254, limits assumed)
- T1 construct: Bought Fc fusion (SinoBiological cat#10555); P31785 is printed for hCD132 in the background; also called human IL2Rg-Fc; not shown: Fc of the bought fusion protein
- T1 sequence (looked up): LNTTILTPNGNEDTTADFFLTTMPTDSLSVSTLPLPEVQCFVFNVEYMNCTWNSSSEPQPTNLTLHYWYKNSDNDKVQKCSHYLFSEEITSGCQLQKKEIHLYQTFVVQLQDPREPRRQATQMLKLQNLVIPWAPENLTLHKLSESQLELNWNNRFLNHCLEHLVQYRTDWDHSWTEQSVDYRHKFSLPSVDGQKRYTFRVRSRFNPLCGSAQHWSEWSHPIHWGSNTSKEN
- assayComment: SPR (Biacore T200), Fc-fused ligand captured on chip, dual VHH as analyte, 1:1 Langmuir fit
- Description: All experiments were conducted in 10 mM Hepes, 150 mM NaCl, 0.05% (v/v) Polysorbate 20 (PS20) and 3 mM EDTA (HBS-EP+ buffer) on a Biacore T200 instrument equipped with Protein A or CAP biotin chips (Cytiva). For experiments on Protein A chips, Fc-fused ligands were flowed at 5 μl/min for variable time ranging from 18 to 300 seconds, reaching the capture loads listed in the tables below. […]

# binder, koff
data = [
    ("DR468(DR240-DR234) (bispecific antibody, Anti-hIL10Ra/hIL2Rg dual VHH with ASH6 handle; also called G8) QVQLQESGGGSVQAGGSLRLSCGASGYTYSSYCMGWFRQVPGKEREGVAVIDSDGSTSYADSVKGRFTISKDNGKNTLYLQMNSLKPEDTAMYYCAADLGHYRPPCGVLYLGMDYWGKGTQVTVSSGGGSQVQLQESGGGSVQAGGSLRLSCVASGYTFSSYCMGWFRQAPGKEREGVAALGGGSTYYADSVKGRFTISQDNAKNTLYLQMNSLKPEDTAMYYCAAAWVACLEFGGSWYDLARYKHWGQGTQVTVSSASHHHHHH", "0.0015 s⁻¹"),
    ("DR474(DR241-DR234) (bispecific antibody, Anti-hIL10Ra/hIL2Rg dual VHH with ASH6 handle; also called H9) QVQLQESGGGSVQAGGSLRLSCAASGYSNCSYDMTWYRQAPGKEREFVSAIHSDGSTRYADSVKGRFFISQDNAKNTVYLQMNSLKPEDTAMYYCKTDPLHCRAHGGSWYSVRANYWGQGTQVTVSSGGGSQVQLQESGGGSVQAGGSLRLSCVASGYTFSSYCMGWFRQAPGKEREGVAALGGGSTYYADSVKGRFTISQDNAKNTLYLQMNSLKPEDTAMYYCAAAWVACLEFGGSWYDLARYKHWGQGTQVTVSSASHHHHHH", "0.00099 s⁻¹"),
    ("DR442(DR236-DR232) (bispecific antibody, Anti-hIL10Ra/hIL2Rg dual VHH with ASH6 handle; also called F7) QVQLQESGGGSVQAGGSLRLSCAASRFTYSSYCMGWFRQAPGKEREGVASIDSDGSTSYTDSVKGRFTISKDNAKNTLYLQMNSLKPEDTAMYYCALDLMSTVVPGFCGFLLSAGMDYWGKGTQVTVSSGGGSQVQLQESGGGSVQAGGSLRLSCVASGYTSCMGWFRQAPGKEREAVATIYTRGRSIYYADSVKGRFTISQDNAKNTLYLQMNSLKPEDIAMYSCAAGGYSWSAGCEFNYWGQGTQVTVSSASHHHHHH", "0.042 s⁻¹"),
]
